- tested_target: MAP kinase-activated protein kinase 2 (Homo sapiens, UniProt P49137)
- Sequence (P49137 whole entry): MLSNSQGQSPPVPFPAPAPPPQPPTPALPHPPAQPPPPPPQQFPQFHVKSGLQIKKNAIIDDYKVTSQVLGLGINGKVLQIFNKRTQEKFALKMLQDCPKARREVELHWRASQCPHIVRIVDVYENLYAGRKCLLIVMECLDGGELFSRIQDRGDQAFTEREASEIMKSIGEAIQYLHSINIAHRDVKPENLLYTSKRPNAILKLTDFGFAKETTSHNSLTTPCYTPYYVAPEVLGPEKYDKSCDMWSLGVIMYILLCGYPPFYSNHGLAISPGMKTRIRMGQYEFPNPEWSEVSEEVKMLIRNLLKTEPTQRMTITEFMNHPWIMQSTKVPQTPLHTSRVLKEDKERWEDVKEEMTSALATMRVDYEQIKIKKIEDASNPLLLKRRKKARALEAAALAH
- protocol: Inhibition of MK2 in human THP1 cells assessed as reduction in LPS-induced HSP27 Ser78 phosphorylation after 60 mins
- Assay type: cell-based, THP-1
pIC50: −log10 of the molar value.
readout_name: pIC50

[
  {
    "smiles_repr": "Clc1ccc(-c2ccc(-c3nccn3-c3ccc(N4CCNCC4)cc3)o2)cc1",
    "tested_target": "MAP kinase-activated protein kinase 2 (Homo sapiens, UniProt P49137)",
    "readout_name": "pIC50",
    "reported_measurement": 5.67
  }
]

----------
- tested_target: UniProt:P51812
- Sequence (P51812 whole entry): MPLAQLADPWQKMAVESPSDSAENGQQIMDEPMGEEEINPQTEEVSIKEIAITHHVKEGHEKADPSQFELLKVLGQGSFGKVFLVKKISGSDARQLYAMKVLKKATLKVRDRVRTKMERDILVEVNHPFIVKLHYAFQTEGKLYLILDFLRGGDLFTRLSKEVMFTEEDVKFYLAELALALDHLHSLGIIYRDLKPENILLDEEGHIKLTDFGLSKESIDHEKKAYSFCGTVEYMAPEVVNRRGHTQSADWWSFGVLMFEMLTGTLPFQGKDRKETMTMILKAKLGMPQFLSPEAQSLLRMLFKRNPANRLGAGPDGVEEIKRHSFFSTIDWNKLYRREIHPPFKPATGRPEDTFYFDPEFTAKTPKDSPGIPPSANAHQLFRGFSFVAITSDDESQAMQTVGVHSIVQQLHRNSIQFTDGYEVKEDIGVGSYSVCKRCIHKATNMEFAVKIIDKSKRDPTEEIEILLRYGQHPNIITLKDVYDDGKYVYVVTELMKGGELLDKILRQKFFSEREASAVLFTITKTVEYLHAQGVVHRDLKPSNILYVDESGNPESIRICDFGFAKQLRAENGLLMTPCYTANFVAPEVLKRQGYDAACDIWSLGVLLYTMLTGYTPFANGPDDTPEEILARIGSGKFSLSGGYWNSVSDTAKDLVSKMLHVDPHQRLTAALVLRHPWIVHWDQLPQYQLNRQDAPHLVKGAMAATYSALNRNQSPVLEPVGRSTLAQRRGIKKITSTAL
pIC50: −log10 of the molar value.

[
  {
    "smiles_repr": "Clc1ccc(-c2ccc(-c3nccn3-c3ccc(N4CCNCC4)cc3)o2)cc1",
    "pIC50": "< 4.52"
  }
]

----------
- tested_target: MAP kinase-activated protein kinase 2 (Homo sapiens, UniProt P49137)
- protocol: Inhibition of MK2 (unknown origin) incubated for 30 mins by MK2 IMAP assay
pIC50: −log10 of the molar value.
readout_name: pIC50

[
  {
    "smiles_repr": "Clc1ccc(-c2ccc(-c3nccn3-c3ccc(N4CCNCC4)cc3)o2)cc1",
    "tested_target": "MAP kinase-activated protein kinase 2 (Homo sapiens, UniProt P49137)",
    "readout_name": "pIC50",
    "reported_measurement": 7.59
  }
]

----------
- tested_target: Casein kinase I isoform delta (Homo sapiens, UniProt P48730)
- Sequence (P48730 whole entry, canonical isoform): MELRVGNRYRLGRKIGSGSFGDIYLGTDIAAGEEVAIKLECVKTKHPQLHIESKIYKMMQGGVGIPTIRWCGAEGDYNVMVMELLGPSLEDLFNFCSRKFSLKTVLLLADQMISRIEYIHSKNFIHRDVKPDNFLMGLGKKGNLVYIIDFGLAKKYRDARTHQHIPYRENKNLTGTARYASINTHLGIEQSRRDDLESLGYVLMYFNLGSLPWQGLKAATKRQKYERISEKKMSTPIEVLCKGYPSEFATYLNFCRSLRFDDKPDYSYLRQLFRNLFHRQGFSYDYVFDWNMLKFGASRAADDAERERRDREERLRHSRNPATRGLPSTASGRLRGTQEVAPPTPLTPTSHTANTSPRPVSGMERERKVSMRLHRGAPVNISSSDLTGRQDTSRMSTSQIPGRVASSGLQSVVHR
- protocol: Inhibition of CSNK1D (unknown origin)

[
  {
    "smiles_repr": "Clc1ccc(-c2ccc(-c3nccn3-c3ccc(N4CCNCC4)cc3)o2)cc1",
    "IC50": "> 30 µM"
  }
]

----------
- tested_target: Ephrin type-B receptor 4 (Homo sapiens)
- Sequence (P54760 whole entry): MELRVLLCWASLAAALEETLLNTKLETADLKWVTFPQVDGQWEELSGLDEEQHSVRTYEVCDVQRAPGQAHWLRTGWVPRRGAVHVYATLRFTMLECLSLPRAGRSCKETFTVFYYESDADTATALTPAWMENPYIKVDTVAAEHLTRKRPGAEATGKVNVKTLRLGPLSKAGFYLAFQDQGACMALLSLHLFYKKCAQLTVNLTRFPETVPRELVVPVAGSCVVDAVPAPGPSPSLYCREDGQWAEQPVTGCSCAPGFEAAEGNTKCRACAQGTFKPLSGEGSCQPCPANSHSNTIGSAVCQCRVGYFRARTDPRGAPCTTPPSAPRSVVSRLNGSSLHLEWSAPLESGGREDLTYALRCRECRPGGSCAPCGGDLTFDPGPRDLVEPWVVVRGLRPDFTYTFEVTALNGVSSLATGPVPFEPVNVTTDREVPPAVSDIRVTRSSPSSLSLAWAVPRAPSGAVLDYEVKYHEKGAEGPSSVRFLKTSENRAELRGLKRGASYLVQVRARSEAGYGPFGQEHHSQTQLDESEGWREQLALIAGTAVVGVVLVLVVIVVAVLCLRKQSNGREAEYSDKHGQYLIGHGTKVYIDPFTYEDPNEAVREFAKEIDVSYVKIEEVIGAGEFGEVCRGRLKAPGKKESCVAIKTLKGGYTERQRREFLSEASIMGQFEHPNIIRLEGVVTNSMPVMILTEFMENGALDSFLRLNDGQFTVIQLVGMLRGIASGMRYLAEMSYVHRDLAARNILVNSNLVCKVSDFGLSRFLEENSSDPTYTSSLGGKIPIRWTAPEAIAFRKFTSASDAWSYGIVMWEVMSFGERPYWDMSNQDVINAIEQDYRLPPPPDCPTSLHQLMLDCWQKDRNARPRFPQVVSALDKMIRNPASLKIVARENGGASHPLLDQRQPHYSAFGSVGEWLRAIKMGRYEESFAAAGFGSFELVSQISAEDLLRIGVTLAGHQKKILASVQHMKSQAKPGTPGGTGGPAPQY

[
  {
    "smiles_repr": "Clc1ccc(-c2ccc(-c3nccn3-c3ccc(N4CCNCC4)cc3)o2)cc1",
    "IC50": "> 30 µM"
  }
]

----------
- tested_target: Vascular endothelial growth factor receptor 2 (Homo sapiens, UniProt P35968)
- Sequence (P35968 whole entry): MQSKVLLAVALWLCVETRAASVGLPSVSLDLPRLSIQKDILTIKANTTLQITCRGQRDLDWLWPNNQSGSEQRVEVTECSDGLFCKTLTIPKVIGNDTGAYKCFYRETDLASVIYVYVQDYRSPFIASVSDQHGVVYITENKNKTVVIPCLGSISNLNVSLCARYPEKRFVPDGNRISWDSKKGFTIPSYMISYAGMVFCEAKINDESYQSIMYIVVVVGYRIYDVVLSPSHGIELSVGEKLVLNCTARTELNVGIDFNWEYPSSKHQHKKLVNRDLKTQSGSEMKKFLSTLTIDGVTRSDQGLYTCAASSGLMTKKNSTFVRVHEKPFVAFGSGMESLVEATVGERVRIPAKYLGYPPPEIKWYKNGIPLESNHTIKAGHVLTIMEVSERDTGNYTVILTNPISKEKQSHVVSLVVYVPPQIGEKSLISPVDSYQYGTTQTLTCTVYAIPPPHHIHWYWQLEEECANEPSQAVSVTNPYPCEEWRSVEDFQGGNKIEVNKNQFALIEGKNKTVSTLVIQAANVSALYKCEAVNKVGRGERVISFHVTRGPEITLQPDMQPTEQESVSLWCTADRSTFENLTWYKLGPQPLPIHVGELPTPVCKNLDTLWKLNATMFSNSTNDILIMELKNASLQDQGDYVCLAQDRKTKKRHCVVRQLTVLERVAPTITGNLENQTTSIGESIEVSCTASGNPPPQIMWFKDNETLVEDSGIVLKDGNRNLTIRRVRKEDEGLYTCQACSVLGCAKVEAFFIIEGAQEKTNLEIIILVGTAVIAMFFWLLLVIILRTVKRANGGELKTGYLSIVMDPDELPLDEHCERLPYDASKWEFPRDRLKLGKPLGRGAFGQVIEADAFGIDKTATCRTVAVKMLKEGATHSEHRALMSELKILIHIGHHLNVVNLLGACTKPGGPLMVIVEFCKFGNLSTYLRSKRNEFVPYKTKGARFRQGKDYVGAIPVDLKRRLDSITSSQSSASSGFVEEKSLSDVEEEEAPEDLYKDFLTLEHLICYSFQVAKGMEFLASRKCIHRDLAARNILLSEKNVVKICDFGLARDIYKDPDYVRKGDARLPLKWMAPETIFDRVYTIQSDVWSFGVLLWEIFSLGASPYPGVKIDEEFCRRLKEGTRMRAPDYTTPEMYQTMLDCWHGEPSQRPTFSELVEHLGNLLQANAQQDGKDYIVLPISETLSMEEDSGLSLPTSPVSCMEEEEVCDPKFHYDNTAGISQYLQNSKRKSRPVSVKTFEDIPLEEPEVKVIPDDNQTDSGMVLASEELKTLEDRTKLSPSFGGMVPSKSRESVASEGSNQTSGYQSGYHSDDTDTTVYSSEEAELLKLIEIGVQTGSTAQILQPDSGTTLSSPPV
readout_name: IC50

[
  {
    "smiles_repr": "Clc1ccc(-c2ccc(-c3nccn3-c3ccc(N4CCNCC4)cc3)o2)cc1",
    "tested_target": "Vascular endothelial growth factor receptor 2 (Homo sapiens, UniProt P35968)",
    "reported_measurement": "> 30 µM"
  }
]

----------
- tested_target: RAC-alpha serine/threonine-protein kinase (Homo sapiens)
- Sequence (P31749 whole entry): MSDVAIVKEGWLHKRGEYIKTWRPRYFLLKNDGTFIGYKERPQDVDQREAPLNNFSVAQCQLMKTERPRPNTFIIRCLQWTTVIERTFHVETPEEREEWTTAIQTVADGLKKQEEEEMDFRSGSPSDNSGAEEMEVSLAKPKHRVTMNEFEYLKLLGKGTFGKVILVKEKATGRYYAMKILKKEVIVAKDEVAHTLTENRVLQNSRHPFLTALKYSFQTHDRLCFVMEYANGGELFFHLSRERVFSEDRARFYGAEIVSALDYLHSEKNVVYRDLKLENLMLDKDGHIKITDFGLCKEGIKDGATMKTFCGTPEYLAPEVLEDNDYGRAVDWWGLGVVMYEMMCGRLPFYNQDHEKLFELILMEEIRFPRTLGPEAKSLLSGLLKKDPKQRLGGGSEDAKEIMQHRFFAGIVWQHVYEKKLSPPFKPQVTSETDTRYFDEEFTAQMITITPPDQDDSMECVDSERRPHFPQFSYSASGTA
readout_name: IC50

[
  {
    "smiles_repr": "Clc1ccc(-c2ccc(-c3nccn3-c3ccc(N4CCNCC4)cc3)o2)cc1",
    "reported_measurement": "> 15 µM"
  }
]

----------
- protocol: Permeability in human Caco2 cells
- Type: ADME, cell-based
- assay_conditions: Caco-2, read-out: permeability
readout_name: Papp (×10⁻⁶ cm/s)

[
  {
    "smiles_repr": "O=C1c2oc(-c3ccc(Cl)cc3)cc2Cc2cc(N3CCNCC3)ccc2N1Cc1ccccc1-c1cncnc1",
    "units": "×10⁻⁶ cm/s",
    "operator": "<",
    "reported_measurement": 0.1
  },
  {
    "smiles_repr": "Clc1ccc(-c2ccc(-c3nccn3-c3ccc(N4CCNCC4)cc3)o2)cc1",
    "units": "×10⁻⁶ cm/s",
    "operator": "=",
    "reported_measurement": 5
  }
]
